- System: T-47D breast
- Test protocol: NCI-60 one-dose screen, 48 h (100 = growth as untreated, 0 = no growth, -100 = all killed)
- Measurement context: 10 µM unless noted
Compounds without any hit were thinned out: in the full panel of roughly 83,000, 20% have a hit.
Please provide measured growth for the entries that follow.
Give bare numbers, in %.

C#Cc1ccc(NC(=O)Cc2ccc(/C=C/C(=O)c3nccn3C)cc2)cc1
69.2
[2H]C([2H])([2H])Oc1c(F)cccc1/C=C/C(=O)/C=C(O)/C=C/c1cccc(F)c1OC([2H])([2H])[2H]
83.8
O=C1CC2C=CCN2C=C1NC(=O)c1ccccc1 (centres undefined)
99.8

// lookup growth for CCOC(=O)C1=CCC(n2cc(F)c(=O)[nH]c2=O)O1 (centres undefined)
98.5

====

- Test system: A549/ATCC NSCLC
- Test protocol: NCI-60 one-dose screen, 48 h
- Measurement context: 10 µM unless noted
About 83,000 compounds went through this panel and 20% of them were active in at least one assay; those are over-represented in the sample as a whole. The source made the active and inactive calls. How the source made its calls: active means growth percent below 10; inactive means the rest.
Classes to choose from: label 1 (active), label 0 (inactive)

A selection of reference data follows.
Cc1ccc(C2(C)NC(=O)N(CC(=O)Nc3cccc(C)c3)C2=O)cc1 (configuration not stated)
label 0
CC(=O)OCCOc1cc(Cl)c(Cl)cc1Cl
label 0
CCN=c1sc2c(n1NC(=O)c1cc3ccc1CCc1ccc(cc1)CC3)C(=O)c1ccccc1C2=O
label 1
CN1CCN(c2ccc(Nc3ncc4[nH]c(=O)n(Cc5ccccc5N)c4n3)cc2)CC1
label 0
O=C(NC1CCCCCC1)c1ccc2c(=O)n3c(nc2c1)CCCCC3
label 0

What was the test verdict on C#CCOc1cc(/C=N/Nc2nc(-c3ccc(OC)cc3)cs2)ccc1O ?
label 0

====

- Test system: M14 melanoma
- Test protocol: NCI-60 one-dose screen, 48 h
- Measurement context: 10 µM unless noted
- Protocol: Growth inhibition of the M14 human tumor cell line is measured as a screen for anti-cancer activity. Cells are grown in 96 well plates and exposed to the test compound for 48 hours. Compounds are tested at a single concentration, which is 10^-5 M for most compounds. The reported endpoint is percent growth (GI% or GIPRCNT), where numbers from 0 - 100% represent growth inhibition, and numbers from -100% - 0 represent cell death. For example, a value of 40 represents 60% growth inhibition. […]
About 83,000 compounds went through this panel and 20% of them were active in at least one assay; those are over-represented in the sample as a whole. Activity calls are given as the source filed them. How the source made its calls: active means growth percent below 10; inactive means the rest.
Give one outcome, nothing more. List: yes (1) for active, no (0) for inactive

Sample answers from the record:
O=C(/C=C/c1ccc(Cl)cc1)c1ccc(-n2cc(CN3CCN(c4cc5c(cc4F)c(=O)c(C(=O)O)cn5C4CC4)CC3)nn2)cc1
no (0)
N#C/C(Sc1nc2sc3c(c2c(=O)n1Cc1ccccc1)CCCC3)=C1/SC=C(c2ccc(Cl)cc2)N1c1ccccc1
no (0)
CC(=O)Cc1nsc(NC(=O)c2cc(-c3cc(Cl)ccc3Cl)oc2C)n1
no (0)

Test call for this molecule, please: CN1C(=O)N(C)C2C1NN=c1s/c(=C\c3ccccc3F)c(=O)n12 (stereo not drawn)
yes (1)

Outcome logged for Oc1ccc(C2OCCO2)c2cccnc12 in this assay:
no (0)

Per the assay record, what outcome was assigned to C(CCCSC1=NCCN1)CCSC1=NCCN1 ?
no (0)

// param item: CC(=O)c1ccc(Nc2nccc(-c3ccc(Cl)cc3)n2)cc1 ; yields the recorded call
no (0)

I'd appreciate the recorded outcome for O=C(CSc1nnc(-c2ccc(Cl)c(Cl)c2)n1-c1ccccc1)Nc1ccc(C(=O)/C=C/c2ccc(Cl)cc2)cc1 from this test.
no (0)

Just curious, what result did CCOC(=O)c1c2c(n3ccc(NC(=O)CCN4CCCC4)cc13)C(=O)c1ncccc1C2=O get here?
no (0)

Recorded test call requested for COc1cc2c(cc1OC)CC[N+](CCC[N+](C)(C)C)=C2
no (0)

How did this test come out for COC1=C(OC)C(=O)C(CCCCCCCCCCO)=C(C)C1=O ?
no (0)

Called result for O=C1c2c(c3c4cccnc4[nH]c3c3ccc4ccccc4c23)C(=O)N1O
no (0)

Could you kindly confirm the outcome this assay logged for CN1CC(c2ccccc2)C(C(=O)c2ccc(Br)cc2)C12C(=O)Nc1ccccc12 (stereo not drawn) ?
no (0)

Hi team, can someone confirm the assay call for CO[C@H]1CC(c2ccc[nH]2)=N[C@]12O[C@@H](C)C[C@@H]1CCCCCCCc3ccc([nH]3)[C@H]12 ?
no (0)

Test call, this molecule: N#Cc1nn(-c2ccccn2)c(N)c1C#N
no (0)

How did this test come out for COc1cc(C2CC(c3cccc(Nc4ccncc4)c3)=Nc3c(N)ncnc3N2)cc(OC)c1OC (stereo not drawn) ?
no (0)

What did this assay record as the result for O=c1ccc2c(ccc3ncccc32)o1 ?
no (0)

Recorded call for COc1ccc(NC(=O)c2sc3nc(C)c(C(=O)c4ccccc4)cc3c2N)cc1 ?
no (0)

Outcome? O=C1/C(=C/c2cccc(Br)c2)COc2ccc(O)c(O)c21
yes (1)

Which result was noted for this molecule in the test: O=C1/C(=C/c2ccc(-c3ccc(Cl)cc3)o2)SC(=S)N1CCc1ccc(O)cc1
no (0)

I would be grateful if you could indicate the recorded call for Fc1ccc(/C=C/c2cc(/C=C/c3ccc(F)cc3)n(-c3cc(F)cc(F)c3)n2)cc1 .
no (0)
